assay-explanation: GHS categories as the set defines them, by LD50: 1 up to 5, 2 up to 50, 3 up to 300, 4 up to 2000, 5 above 2000 mg/kg
applied-conditions: rat; in vivo; po
outcome-measure: GHS category
# output: bare number, no unit

>  <compound>
CCC(c1ccc(O)cc1)C(C#N)c1ccc(O)cc1 (stereo not drawn)

>  <GHS category>
5

$$$$

Value of GHS category reported for the compound O=[N+]([O-])c1ccc(OCC2CO2)cc1 (stereo not drawn) is 5

// recorded GHS category for Cc1cccc2ncc(C(=O)NC3CCCC3)c(=O)n12 : 3

* * *

assay-explanation: rat acute oral toxicity
applied-conditions: in vivo
Catalogue of log10 of LD50 values
Would you kindly interpret these values as log10 of LD50 expressed in mg/kg?

Illustrative cases are given below, each with its answer.
>  <compound>
Clc1ccc(-c2ccc(Cl)c(Cl)c2Cl)c(Cl)c1Cl

>  <log10 of LD50>
3.11

$$$$
>  <compound>
O=C=Nc1ccc(OC(F)(F)F)cc1

>  <log10 of LD50>
3.18

$$$$
>  <compound>
NC(=O)/C(=C\c1ccc([N+](=O)[O-])o1)c1ccco1

>  <log10 of LD50>
2.53

$$$$
>  <compound>
CCC(=O)O[C@](Cc1ccccc1)(c1ccccc1)[C@H](C)CN(C)C

>  <log10 of LD50>
2.13

$$$$

Quick note, log10 of LD50 for CCCCCCCCCCCCCCCC[N+](C)(C)C landed at 2.65

The recorded log10 of LD50 for entry CCC(C)n1c(=O)[nH]c(C)c(Br)c1=O (configuration not stated) equals 2.81

Measured log10 of LD50 of Clc1cc(Cl)c(Cl)nc1Cl : 3.00
